System: Stb5 (UniProt P38699)
Sequence: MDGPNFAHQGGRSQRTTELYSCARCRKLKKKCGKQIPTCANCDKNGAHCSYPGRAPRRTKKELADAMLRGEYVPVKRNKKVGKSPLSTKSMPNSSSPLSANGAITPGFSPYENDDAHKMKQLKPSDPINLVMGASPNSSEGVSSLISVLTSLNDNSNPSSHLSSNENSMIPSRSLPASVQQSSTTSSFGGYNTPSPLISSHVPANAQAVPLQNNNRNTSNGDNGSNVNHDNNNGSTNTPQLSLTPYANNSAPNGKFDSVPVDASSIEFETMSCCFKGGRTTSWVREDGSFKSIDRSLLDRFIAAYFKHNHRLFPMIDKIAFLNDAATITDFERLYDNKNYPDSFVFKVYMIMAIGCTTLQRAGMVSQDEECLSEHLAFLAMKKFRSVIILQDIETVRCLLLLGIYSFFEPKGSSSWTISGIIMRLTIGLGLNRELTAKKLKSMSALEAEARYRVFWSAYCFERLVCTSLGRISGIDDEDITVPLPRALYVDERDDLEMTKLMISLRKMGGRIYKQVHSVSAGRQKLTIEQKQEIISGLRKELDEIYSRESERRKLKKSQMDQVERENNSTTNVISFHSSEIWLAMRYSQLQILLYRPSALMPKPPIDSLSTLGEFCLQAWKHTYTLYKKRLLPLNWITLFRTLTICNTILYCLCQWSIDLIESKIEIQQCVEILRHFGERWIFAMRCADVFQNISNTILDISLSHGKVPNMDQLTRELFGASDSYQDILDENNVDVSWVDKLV
Assay Text: PBM E-score (8-mer binding enrichment) (E-score (-0.5 to 0.5)); higher = stronger / more preferred TF binding
Measurement Setup: protein concentration: 200 nM; construct: GST-full length
The full ranking holds about 33,000 sequences; the median of “E-score (-0.5 to 0.5)” is about -0.054, and the highest 2% start at about 0.35. The sample holds the highest values, similar sequences and a random draw of the others, so the mix is not that of the screen.
Please map values of PBM E-score to classes as shown: bin A = under 0.1, bin B = from 0.1 up to 0.3, bin C = 0.3 and over

seq_text=CGTCCGGA system="Stb5 (UniProt P38699)" discrete_label="bin B"
seq_text=ATGCCGGG system="Stb5 (UniProt P38699)" discrete_label="bin B"
seq_text=AGTCCGCC system="Stb5 (UniProt P38699)" discrete_label="bin C"
seq_text=AATCGGAC system="Stb5 (UniProt P38699)" discrete_label="bin C"
seq_text=ATGCCGGA system="Stb5 (UniProt P38699)" discrete_label="bin C"
seq_text=CGACCAGC system="Stb5 (UniProt P38699)" discrete_label="bin B"
seq_text=ACTTTCCA system="Stb5 (UniProt P38699)" discrete_label="bin A"
seq_text=GATCGGAA system="Stb5 (UniProt P38699)" discrete_label="bin B"
seq_text=TAGCGATA system="Stb5 (UniProt P38699)" discrete_label="bin A"

Category of ACCCCCCA , please.
bin A
